Test system: TNFα production in human peripheral monocytes
Test: Inhibitory effect on TNFα production in LPS-stimulated human peripheral monocytes
Format: cell-based
Details: Monocyte, LPS 10 μg/ml, 20 hours
RECORDED METRIC: inhibition at 10 µM (%)
Just the number in %, nothing appended.

The following molecules have reported results that may help.
[[record]]
molecule = "CS(=O)(=O)c1ccc(-c2cc(C(F)F)cn2-c2ccc(F)cc2)cc1"
units_of_measure = "%"
quantitative_result = 40.9

[[record]]
molecule = "COc1ccc(-c2cc(Cc3ccc(OC)c(OC4CCCC4)c3)cn2-c2ccc(S(N)(=O)=O)cc2)cc1"
units_of_measure = "%"
quantitative_result = 46.1

[[record]]
molecule = "Cc1ccc(-c2ccccc2)n1-c1ccc(S(N)(=O)=O)cc1 [Compound A, reference compound]"
units_of_measure = "%"
quantitative_result = 13.9

[[record]]
molecule = "CCCOc1ccc(-c2cc(C)cn2-c2ccc(S(N)(=O)=O)cc2)cc1"
units_of_measure = "%"
quantitative_result = 42.6


Now for the molecule whose inhibition at 10 µM we want.
Query: Item COc1ccc(-n2cccc2-c2ccc(S(C)(=O)=O)cc2)cc1F : provide inhibition at 10 µM
Reply: 54.7
